System: HL-60(TB) leukemia
measurementDescription: NCI-60 one-dose screen, 48 h (100 = growth as untreated, 0 = no growth, -100 = all killed)
conditionParameters: 10 µM unless noted
The panel holds about 83,000 compounds, 20% with a hit somewhere; the sample as a whole holds those more often.
Values of growth greater than or equal to 20% map to Condition met; values below map to Condition not met.

>>> classname("O=c1c2cc(-c3ccc(F)cc3F)ccc2n(Nc2ccccc2)c(=O)n1-c1cccc(C(F)(F)F)c1")
"Condition not met"
>>> classname("O=C(/C=C/Nc1ccc(S(=O)(=O)Nc2ncccn2)cc1)c1ccc(N=Cc2c(O)[nH]c3ccccc23)cc1")
"Condition met"
>>> classname("CCn1c2ccc(/C=N/NS(=O)(=O)CCN(C)C)cc2c2cc(/C=N/NS(=O)(=O)CCN(C)C)ccc21")
"Condition met"
>>> classname("N#Cc1c(-c2cccs2)c(C#N)c(=O)n(Cc2nc3ccccc3[nH]2)c1N")
"Condition met"
>>> classname("O=C(CSc1nnc(-c2ccc(Cl)cc2)n1-c1ccccc1)Nc1cccc(F)c1")
"Condition met"
>>> classname("N[C@@H](Cc1cn(-c2ccnc3ccccc23)nn1)C(=O)O")
"Condition met"
>>> classname("COc1ccc(-c2ccc3c4c(cccc24)C(=O)N(N2C(=O)c4cccc5cccc(c45)C2=O)C3=O)cc1")
"Condition met"
>>> classname("Cc1cc(C(=O)Nc2sc3c(c2C(N)=O)CCC(=O)C3)ccc1OCCN1CCCCC1")
"Condition met"
>>> classname("CN1CCN(c2ccc(/C=N/Nc3nc4ccccc4c(=O)n3-c3ccccc3)cc2)CC1")
"Condition met"
>>> classname("Cn1cc(-c2nnc(N)nc2-c2cn(C)c3ccc(F)cc23)c2cc(F)ccc21")
"Condition met"
>>> classname("O=C(O)c1cn(C2CC2)c2cc(N3CCN(C(=O)CN4C(=O)CSC4=O)CC3)c(F)cc2c1=O")
"Condition met"
>>> classname("CN1CCN(Cc2ccc(NC(=O)c3cncc(C#Cc4cnc5ccc(N6CCOCC6)nn45)c3)cc2C(F)(F)F)CC1")
"Condition not met"
>>> classname("FC(F)(F)c1cc(Br)cc(-c2cc(-c3ccc4c(c3)OCCO4)[nH]n2)c1")
"Condition not met"
>>> classname("N/C(=N\\C(N)=N\\c1nc2ccccc2s1)c1ccc(C(F)(F)F)cc1")
"Condition met"
>>> classname("COc1cc(-c2nn(C(C)(C)C)cc2-c2ccnc(NCCCNS(=O)(=O)c3ccc(Cl)cc3)n2)ccc1Cl")
"Condition met"
>>> classname("Cc1ccccc1NC(=O)Nc1nc2ccc([N+](=O)[O-])cc2s1")
"Condition not met"
>>> classname("CN(C)c1ccc(/C=c2\\sc3nc4ccccc4n3c2=O)cc1")
"Condition met"
>>> classname("C#Cc1ccc(C(=O)NCc2ccc(/C=C/C(=O)c3nccn3C)cc2)cc1")
"Condition not met"
>>> classname("N#Cc1c(-c2ccc(F)cc2)nc2c(C#N)c(Nc3ccccc3)nn2c1N")
"Condition met"
>>> classname("CCc1ccc(NC(=O)N[C@@H](Cc2cc(F)cc(F)c2)C(=O)N[C@@H]2C(=O)N3CCC[C@H]3C(=O)N3CCO[C@H](C)[C@H]3C(=O)N[C@@H](CO)C(=O)N3C[C@H](C)C[C@H]3C(=O)O[C@H]2C)c(F)c1")
"Condition not met"
>>> classname("CC1=C(C)C(=O)C(Nc2cccc(C(=O)OC(C)(C)C)c2)=CC1=O")
"Condition met"
>>> classname("COc1ccc(-c2nc(C#N)c(N3CCC(S(=O)(=O)N4CCOCC4)CC3)o2)cc1")
"Condition met"
>>> classname("NS(=O)(=O)c1ccc(-n2cc(CC=O)nn2)cc1")
"Condition met"
>>> classname("CCNC(=O)Oc1ccc(/C(=C(/C)c2ccccc2)c2ccc(OCCN3CCCCCC3)cc2)cc1")
"Condition not met"
>>> classname("CS(=O)(=O)c1nccc(-c2c(-c3ccc(F)c(OCc4ccccc4)c3)nc3sccn23)n1")
"Condition not met"
>>> classname("COc1ccc(C2CC(c3cccc(OCCCCOc4cccc(C5=NOC(c6ccc(OC)cc6)C5)c4)c3)=NO2)cc1 (configuration not stated)")
"Condition met"
>>> classname("CC(=C(c1ccc(OCCCN(C)C)cc1)c1ccc(OCCCN(C)C)cc1)c1ccc(Cl)cc1")
"Condition met"
>>> classname("CN1CCN(Cc2ccc(NC(=O)c3cncc(C#Cc4cnc5ccc(NCCO)nn45)c3)cc2C(F)(F)F)CC1")
"Condition not met"
>>> classname("CCn1c2ccccc2c2cc(-n3nncc3-c3ccccc3)ccc21")
"Condition not met"
>>> classname("N#Cc1c(-c2cccs2)cc(-c2cnccn2)nc1SCC(=O)N/N=C/c1ccncc1")
"Condition met"
>>> classname("Cc1cccc(/C=C/C(=O)Nc2ncc(Cc3cccc(C)c3)s2)c1")
"Condition not met"
>>> classname("O=S(=O)(Oc1ccc(-c2cn3ccsc3n2)cc1)c1cccc(C(F)(F)F)c1")
"Condition met"
>>> classname("Oc1ccc(CSc2nnc(-c3ccc(Br)cc3)n2-c2ccccc2)c2cccnc12")
"Condition met"
>>> classname("COc1cc2cc(Oc3ccc(NC(=O)c4cc(C(F)(F)F)cc(C(F)(F)F)c4)cc3)c(C)nc2cc1OCCN1CCOCC1")
"Condition met"
>>> classname("Cn1ccnc1C(=O)/C=C/c1ccc(CNC(=O)c2ccc(S(F)(F)(F)(F)F)cc2)cc1")
"Condition not met"
>>> classname("Cc1ccc2c(n1)C(=O)C(Cl)=C(Nc1cccc(C(F)(F)F)c1)C2=O")
"Condition met"
>>> classname("COc1ccc2oc3c4[nH]c5ccccc5c4c4c(c3c2c1)C(=O)N(O)C4=O")
"Condition met"
